Could you please report measured viability at 72 h, 25 µg/mL for the items listed next?
Experiment: MTT cytotoxicity assay on A549
Type: cell-based
Conditions: human, A549 cells, A549, 25 μg/mL, read-out: Cytotoxicity (% cell viability)
// note: answer is a bare numeric in %

Enquiry: I would be grateful if you could share the reported viability at 72 h, 25 µg/mL for "CN1c2c(-c3ccc(Cl)cc3)n[nH]c2-c2ccccc2S1(=O)=O" .
Return: 45

Enquiry: Moving on to the next molecule: "O=S1(=O)Nc2c(-c3ccc(Cl)cc3)nn(-c3ccccc3)c2-c2ccccc21"
Return: 99

Enquiry: Moving on to the next molecule: O=[N+]([O-])c1ccc(-n2nc(-c3ccc(Cl)cc3)c3c2-c2ccccc2S(=O)(=O)N3)cc1 [Compound 1, reference compound]
Return: 76

----------
System: Staphylococcus aureus SA-1199B
Assay type: cell-based
Settings: EPI at 12.5 µg/mL
Could you please report measured N° fold CPX MIC reduction for the items listed next?
// note: answer is a bare numeric in fold

Enquiry: I would be grateful if you could share the reported N° fold CPX MIC reduction for "CN1c2c(-c3ccc(F)cc3)nn(C)c2-c2ccc(OCCN3CCOCC3)cc2S1(=O)=O" .
Return: 4

Enquiry: Moving on to the next compound: "O=S1(=O)Nc2c(-c3ccc(Cl)cc3)n[nH]c2-c2ccccc21"
Return: 2

Enquiry: Moving on to the next compound: "CNC(=O)CN1c2c(-c3ccc(F)cc3)n[nH]c2-c2ccccc2S1(=O)=O"
Return: 2

Enquiry: Moving on to the next compound: "Cc1cc(-c2ccccc2NS(C)(=O)=O)n(-c2ccccc2)n1"
Return: 2

Enquiry: Moving on to the next compound: "CN1c2c(-c3ccc(Cl)cc3)n[nH]c2-c2ccccc2S1(=O)=O"
Return: 4

Enquiry: Moving on to the next compound: "O=S1(=O)c2ccccc2-c2[nH]nc(-c3ccc(F)cc3)c2N1CCCO"
Return: 2

Enquiry: Moving on to the next compound: "CCN1c2c(-c3ccc(F)cc3)n[nH]c2-c2ccccc2S1(=O)=O"
Return: 2

Enquiry: Moving on to the next compound: "CN1c2c(-c3ccc(Cl)cc3)nn(CCN3CCCCC3)c2-c2ccccc2S1(=O)=O"
Return: 4

Enquiry: Moving on to the next compound: O=[N+]([O-])c1ccc(-n2nc(-c3ccc(Cl)cc3)c3c2-c2ccccc2S(=O)(=O)N3)cc1 [Compound 1, reference compound]
Return: 16

Enquiry: Moving on to the next compound: "CN1C(C(=O)c2ccc(F)cc2)=C(OCCN2CCCCC2)c2ccccc2S1(=O)=O"
Return: 2

Enquiry: Moving on to the next compound: "CN1c2c(-c3ccc(F)c(Cl)c3)n[nH]c2-c2ccccc2S1(=O)=O"
Return: 4

Enquiry: Moving on to the next compound: "CCN(CC)CCOC1=C(C(=O)c2ccc(F)cc2)N(C)S(=O)(=O)c2ccccc21"
Return: 2

Enquiry: Moving on to the next compound: "CN1c2c(-c3ccc(F)cc3)nn(C)c2-c2ccc(OCCN3CCCCC3)cc2S1(=O)=O"
Return: 8

Enquiry: Moving on to the next compound: "COc1ccc2c(c1)S(=O)(=O)N(C)c1c(-c3ccc(F)cc3)nn(C)c1-2"
Return: 2

----------
Could you please report measured CPX MIC for the items listed next?
System: S. aureus SA-K2378 (norA ++)
Test: Checkerboard assay EPI/CPX against SA-K2378
Assay type: cell-based, Staphylococcus aureus
Conditions: EPI at 3.13 µg/mL
// note: answer is a bare numeric in µg/mL

Enquiry: I would be grateful if you could share the reported CPX MIC for "O=S1(=O)Nc2c(-c3ccc(Cl)cc3)nn(-c3ccccc3)c2-c2ccccc21" .
Return: 0.16

Enquiry: Moving on to the next compound: "CN1c2c(-c3ccc(F)cc3)nn(C)c2-c2ccc(OCCN3CCOCC3)cc2S1(=O)=O"
Return: 0.3

Enquiry: Moving on to the next compound: "CN1c2c(-c3ccc(Cl)cc3)n[nH]c2-c2ccccc2S1(=O)=O"
Return: 0.08

Enquiry: Moving on to the next compound: O=[N+]([O-])c1ccc(-n2nc(-c3ccc(Cl)cc3)c3c2-c2ccccc2S(=O)(=O)N3)cc1 [Compound 1, reference compound]
Return: 0.3

----------
System: S. aureus SA-K1902 (norA-)
Assay: Checkerboard assay EPI/CPX against SA-K1902
Format: cell-based, Staphylococcus aureus
Conditions: EPI at 1.6 µg/mL
measure: CPX MIC (mg/L)
// note: answer is a bare numeric in mg/L

Enquiry: I would be grateful if you could share the reported CPX MIC for O=[N+]([O-])c1ccc(-n2nc(-c3ccc(Cl)cc3)c3c2-c2ccccc2S(=O)(=O)N3)cc1 [Compound 1, reference compound] .
Return: 0.15

Enquiry: Moving on to the next compound: "CN1c2c(-c3ccc(F)cc3)nn(C)c2-c2ccc(OCCN3CCOCC3)cc2S1(=O)=O"
Return: 0.08

Enquiry: Moving on to the next compound: "CN1c2c(-c3ccc(Cl)cc3)n[nH]c2-c2ccccc2S1(=O)=O"
Return: 0.08

Enquiry: Moving on to the next compound: "O=S1(=O)Nc2c(-c3ccc(Cl)cc3)nn(-c3ccccc3)c2-c2ccccc21"
Return: 0.08

----------
Could you please report measured inhibition at 10 µM for the items listed next?
Target: S. aureus NorA efflux pump (SA-1199B strain, overexpresses the norA gene) (Staphylococcus aureus, UniProt P0A0J7)
Construct: endogenous in cells; host or cells: S. aureus SA-1199B (overexpresses norA; isogenic parent SA-1199)
Sequence (P0A0J7 whole entry): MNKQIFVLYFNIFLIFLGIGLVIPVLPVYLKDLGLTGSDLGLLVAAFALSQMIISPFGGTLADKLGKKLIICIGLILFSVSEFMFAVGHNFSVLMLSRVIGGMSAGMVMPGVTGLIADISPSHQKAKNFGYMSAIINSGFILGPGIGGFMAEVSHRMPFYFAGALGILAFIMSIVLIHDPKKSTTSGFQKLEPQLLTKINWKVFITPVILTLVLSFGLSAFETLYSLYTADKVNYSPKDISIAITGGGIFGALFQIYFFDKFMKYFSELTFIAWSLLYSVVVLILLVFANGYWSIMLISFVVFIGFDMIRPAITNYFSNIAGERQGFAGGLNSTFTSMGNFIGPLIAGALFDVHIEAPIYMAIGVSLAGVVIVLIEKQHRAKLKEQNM
Assay: EtBr efflux inhibition assay
Type: cell-based
Settings: read-out: EtBr efflux inhibition (%), compound at 10 µM, SA-1199B
// note: answer is a bare numeric in %

Enquiry: I would be grateful if you could share the reported inhibition at 10 µM for "CN1c2c(-c3ccc(Cl)cc3)n[nH]c2-c2ccccc2S1(=O)=O" .
Return: 95

Enquiry: Moving on to the next molecule: "CN1c2c(-c3ccc(Cl)cc3)nn(CCN3CCCCC3)c2-c2ccccc2S1(=O)=O"
Return: 37

Enquiry: Moving on to the next molecule: O=[N+]([O-])c1ccc(-n2nc(-c3ccc(Cl)cc3)c3c2-c2ccccc2S(=O)(=O)N3)cc1 [Compound 1, reference compound]
Return: 0

----------
Could you please report measured MIC for the items listed next?
Test system: S. aureus SA-K2378 (norA ++)
Assay: MIC evaluation against SA-K2378
Assay type: cell-based, Staphylococcus aureus
Settings: Staphylococcus aureus
Give me the value, and tack the unit on after it.

Enquiry: I would be grateful if you could share the reported MIC for "O=S1(=O)Nc2c(-c3ccc(Cl)cc3)nn(-c3ccccc3)c2-c2ccccc21" .
Return: 25 µg/mL

Enquiry: Moving on to the next compound: "CN1c2c(-c3ccc(F)cc3)nn(C)c2-c2ccc(OCCN3CCOCC3)cc2S1(=O)=O"
Return: 25 µg/mL

Enquiry: Moving on to the next compound: O=[N+]([O-])c1ccc(-n2nc(-c3ccc(Cl)cc3)c3c2-c2ccccc2S(=O)(=O)N3)cc1 [Compound 1, reference compound]
Return: 12.5 µg/mL

Enquiry: Moving on to the next compound: "CN1c2c(-c3ccc(Cl)cc3)n[nH]c2-c2ccccc2S1(=O)=O"
Return: 12.5 µg/mL

----------
Staphylococcus aureus SA-1199B data, read-out MIC

Enquiry: I would be grateful if you could share the reported MIC for "CN1C(C(=O)c2ccc(F)cc2)=C(OCCN2CCCCC2)c2ccccc2S1(=O)=O" .
Return: > 50 µg/mL

Enquiry: Moving on to the next compound: "CNCCN1c2c(-c3ccc(F)cc3)n[nH]c2-c2ccccc2S1(=O)=O"
Return: > 50 µg/mL

Enquiry: Moving on to the next compound: "Cc1cc(-c2ccccc2NS(C)(=O)=O)n(-c2ccccc2)n1"
Return: > 50 µg/mL

Enquiry: Moving on to the next compound: "CCN(CC)CCOC1=C(C(=O)c2ccc(F)cc2)N(C)S(=O)(=O)c2ccccc21"
Return: > 50 µg/mL

Enquiry: Moving on to the next compound: "Cc1nn(-c2ccc([N+](=O)[O-])cc2)c2c1S(=O)(=O)Nc1ccccc1-2"
Return: > 50 µg/mL

Enquiry: Moving on to the next compound: O=C(O)c1cn(C2CC2)c2cc(N3CCNCC3)c(F)cc2c1=O [CPX, ciprofloxacin, reference compound]
Return: 10 µg/mL

Enquiry: Moving on to the next compound: "CN1c2c(-c3ccc(Cl)cc3)nn(CCN3CCCCC3)c2-c2ccccc2S1(=O)=O"
Return: > 50 µg/mL

Enquiry: Moving on to the next compound: "O=S1(=O)Nc2c(-c3ccc(Cl)cc3)n[nH]c2-c2ccccc21"
Return: > 50 µg/mL

----------
Could you please report measured inhibition at 50 µM for the items listed next?
Target: S. aureus NorA efflux pump (SA-1199B strain, overexpresses the norA gene) (Staphylococcus aureus, UniProt P0A0J7)
Construct: endogenous in cells; host or cells: S. aureus SA-1199B (overexpresses norA; isogenic parent SA-1199)
Test: EtBr efflux inhibition assay
Type: cell-based
Settings: read-out: EtBr efflux inhibition (%), compound at 50 µM, SA-1199B
// note: answer is a bare numeric in %

Enquiry: I would be grateful if you could share the reported inhibition at 50 µM for "Cc1nn(-c2ccc([N+](=O)[O-])cc2)c2c1S(=O)(=O)Nc1ccccc1-2" .
Return: 0

Enquiry: Moving on to the next molecule: "CNC(=O)CN1c2c(-c3ccc(F)cc3)n[nH]c2-c2ccccc2S1(=O)=O"
Return: 22

Enquiry: Moving on to the next molecule: "COc1ccc2c(c1)S(=O)(=O)N(C)c1c(-c3ccc(F)cc3)nn(C)c1-2"
Return: 22

Enquiry: Moving on to the next molecule: "CN1C(C(=O)c2ccc(F)cc2)=C(OCCN2CCCCC2)c2ccccc2S1(=O)=O"
Return: 38

Enquiry: Moving on to the next molecule: "CN1c2c(-c3ccc(F)c(Cl)c3)n[nH]c2-c2ccccc2S1(=O)=O"
Return: 100

Enquiry: Moving on to the next molecule: "Cc1nn(-c2ccc([N+](=O)[O-])cc2)c2c1NS(=O)(=O)c1ccccc1-2"
Return: 0

Enquiry: Moving on to the next molecule: "CN1c2c(-c3ccc(Cl)cc3)nn(-c3ccc([N+](=O)[O-])cc3)c2-c2ccccc2S1(=O)=O"
Return: 0

Enquiry: Moving on to the next molecule: "Cc1nn(-c2ccc([N+](=O)[O-])cc2)c2c1S(=O)(=O)N(C)c1ccccc1-2"
Return: 3

Enquiry: Moving on to the next molecule: "CCN1c2c(-c3ccc(F)cc3)n[nH]c2-c2ccccc2S1(=O)=O"
Return: 57

Enquiry: Moving on to the next molecule: O=[N+]([O-])c1ccc(-n2nc(-c3ccc(Cl)cc3)c3c2-c2ccccc2S(=O)(=O)N3)cc1 [Compound 1, reference compound]
Return: 77

Enquiry: Moving on to the next molecule: "O=S1(=O)Nc2c(-c3ccc(Cl)cc3)nn(-c3ccccc3)c2-c2ccccc21"
Return: 7

meta.source: paper PMC12089509
